Provenance of the data: paper PMC3677030

biological target: EphA2-ephrin-A1 interaction (EphA2-Fc ectodomain) (Mus musculus); assay type: binding; conditions: tested starting from 200 μM
Sequence (Q03145 26-538 limits assumed): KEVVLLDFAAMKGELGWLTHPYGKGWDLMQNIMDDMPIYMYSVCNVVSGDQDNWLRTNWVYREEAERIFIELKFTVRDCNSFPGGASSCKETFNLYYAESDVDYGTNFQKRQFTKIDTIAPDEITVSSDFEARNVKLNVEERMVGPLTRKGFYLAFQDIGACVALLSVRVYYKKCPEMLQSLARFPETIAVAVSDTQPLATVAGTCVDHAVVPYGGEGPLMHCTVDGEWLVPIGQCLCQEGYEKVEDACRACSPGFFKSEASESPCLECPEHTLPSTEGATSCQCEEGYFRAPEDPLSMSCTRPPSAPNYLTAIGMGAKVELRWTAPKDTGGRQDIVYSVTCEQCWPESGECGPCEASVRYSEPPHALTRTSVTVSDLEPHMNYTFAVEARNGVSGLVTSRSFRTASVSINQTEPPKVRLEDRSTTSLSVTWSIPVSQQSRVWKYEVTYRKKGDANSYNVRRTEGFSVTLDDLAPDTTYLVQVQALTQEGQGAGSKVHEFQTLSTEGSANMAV
property-name: Activity in EphA2-ephrin-A1 binding assay, in words

1) C[C@H](CCC(=O)O)[C@H]1CC[C@H]2[C@@H]3CC[C@@H]4C[C@H](O)CC[C@]4(C)[C@H]3C[C@H](O)[C@]12C    inactive
2) C[C@H](CCC(=O)O)[C@H]1CC[C@H]2[C@@H]3[C@H](O)C[C@@H]4C[C@H](O)CC[C@]4(C)[C@H]3CC[C@]12C    inactive
